# Species: Rattus norvegicus
# ASSAY_METHOD_TEXT: DrugMatrix - Regimen: Daily Repeat
# Format: toxicity, organism-based, Sprague-Dawley
# Set-up: regimen Daily Repeat, gender Male, age 6-8 weeks
# TEST_CONDITIONS: in vivo, po, 0 mg/kg, 72 h, tissue Plasma, route oral GAVAGE, dose level Control, time 3 day, vehicle .5 % CMC
ENDPOINT_NAME: GLUCOSE (mg/dL)
Numeric only. Scale: mg/dL

Some entries whose results are on file:
- COMPOUND: "Cc1cnc(C(=O)NCCc2ccc(S(=O)(=O)NC(=O)NC3CCCCC3)cc2)cn1 [GLIPIZIDE]"
  GLUCOSE [mg/dL]: 171.5
- COMPOUND: "CCOC(=O)[C@H](CCc1ccccc1)N[C@@H](C)C(=O)N1Cc2ccccc2C[C@H]1C(=O)O"
  GLUCOSE [mg/dL]: 171.5

Okay, next one:
Report measured GLUCOSE; entry is CC[C@]1(O)CC[C@H]2[C@@H]3CCC4=CCCC[C@@H]4[C@H]3CC[C@@]21C 173.67

* * *

NEUTROPHIL values by entry
# Organism: Rattus norvegicus
# ASSAY_METHOD_TEXT: DrugMatrix - Regimen: Daily Repeat
# Format: toxicity, organism-based, Sprague-Dawley
# Parameters: regimen Daily Repeat, gender Male, age 6-8 weeks
# TEST_CONDITIONS: in vivo, po, 0 mg/kg, 120 h, tissue Blood, route oral GAVAGE, dose level Control, time 5 day, vehicle .5 % CMC
Express your answer as a number followed by its unit.

Here is how some molecules turned out for NEUTROPHIL.
- MOLECULE: "Nc1cccc(Cl)c1"
  VALUE_OBSERVED: "8.67%"
- MOLECULE: "CC(C(=O)O)c1ccc(-c2ccccc2)c(F)c1 (stereo not given)"
  VALUE_OBSERVED: "8.33%"
- MOLECULE: "C[C@@H](O)[C@H]1C(=O)N2C(C(=O)O)=C(S[C@@H]3CN[C@H](C(=O)N(C)C)C3)[C@H](C)[C@H]12"
  VALUE_OBSERVED: "8.33%"
- MOLECULE: "CN1C(=O)CN=C(c2ccccc2)c2cc(Cl)ccc21"
  VALUE_OBSERVED: "6.67%"

Query molecule follows.
Please report the measured NEUTROPHIL for COc1ccc(/C=C/C(=O)Nc2ccccc2C(=O)O)cc1OC 8.33%

* * *

# Species on record: Rattus norvegicus
# ASSAY_METHOD_TEXT: DrugMatrix - Regimen: Daily Repeat
# Type: toxicity, organism-based, Sprague-Dawley
# Parameters: regimen Daily Repeat, gender Male, age 6-8 weeks
# TEST_CONDITIONS: in vivo, po, 0 mg/kg, 120 h, tissue Blood, route oral GAVAGE, dose level Control, time 5 day, vehicle 100 % WATER
List of EOSINOPHIL values.
Give just the numeric value; % need not be written.

Known EOSINOPHIL results, listed for orientation:
- MOLECULE: "CCOC(N)=O"
  EOSINOPHIL (%): 0.67
- MOLECULE: "OCCO [ETHYLENE GLYCOL]"
  EOSINOPHIL (%): 0
- MOLECULE: "CC(C)(C)NC[C@H](O)COc1nsnc1N1CCOCC1 [TIMOLOL]"
  EOSINOPHIL (%): 0.17
- MOLECULE: "CN1C2CCCC1CC(NC(=O)c1nn(C)c3ccccc13)C2 (configuration not stated) [GRANISETRON]"
  EOSINOPHIL (%): 0.17
- MOLECULE: "O=C(O)c1cccnc1 [NIACIN]"
  EOSINOPHIL (%): 0.5
- MOLECULE: "Nc1ccc(S(=O)(=O)Nc2nccs2)cc1 [SULFATHIAZOLE]"
  EOSINOPHIL (%): 0.17

--- query ---
Read off the recorded EOSINOPHIL for CNS(=O)(=O)Cc1ccc2[nH]cc(CCN(C)C)c2c1 0.33

* * *

Below, each entry is listed with its recorded LEUKOCYTE COUNT.
# Species: Rattus norvegicus
# ASSAY_METHOD_TEXT: DrugMatrix - Regimen: Daily Repeat
# Assay type: toxicity, organism-based, Sprague-Dawley
# Set-up: regimen Daily Repeat, gender Male, age 6-8 weeks
# TEST_CONDITIONS: in vivo, po, 0 mg/kg, 120 h, tissue Blood, route oral GAVAGE, dose level Control, time 5 day, […]
Field format: number, assumed x10E3/uL, no unit text.

The cases that follow already have their LEUKOCYTE COUNT on record.
- MOLECULE: "CC(=O)Nc1nnc(S(N)(=O)=O)s1 [ACETAZOLAMIDE]"
  ENDPOINT_NAME: "LEUKOCYTE COUNT"
  VALUE_OBSERVED: 9.93
- MOLECULE: "COc1ncnc(NS(=O)(=O)c2ccc(N)cc2)c1OC"
  ENDPOINT_NAME: "LEUKOCYTE COUNT"
  VALUE_OBSERVED: 9.93

Given the molecule CC[C@H](C)C(=O)O[C@H]1C[C@@H](C)C=C2C=C[C@H](C)[C@H](CC[C@@H]3C[C@@H](O)CC(=O)O3)[C@H]21 , write its reported LEUKOCYTE COUNT. 9.87

* * *

Listed here are compounds together with their documented GLUCOSE.
# Organism: Rattus norvegicus
# ASSAY_METHOD_TEXT: DrugMatrix - Regimen: Daily Repeat
# Type: toxicity, organism-based, Sprague-Dawley
# Parameters: regimen Daily Repeat, gender Male, age 6-8 weeks
# TEST_CONDITIONS: in vivo, po, 0 mg/kg, 120 h, tissue Plasma, route oral GAVAGE, dose level Control, time 5 day, vehicle .5 % CMC
Respond with the bare value in mg/dL.

Item COc1ccc(/C=C/C(=O)Nc2ccccc2C(=O)O)cc1OC : provide GLUCOSE 168.83

In one line, give reported GLUCOSE of the entry C=C(CC)C(=O)c1ccc(OCC(=O)O)c(Cl)c1Cl . 177.33

Complete the entry with GLUCOSE for CO[C@H]1C[C@@H]2CC[C@@H](C)[C@@](O)(O2)C(=O)C(=O)N2CCCC[C@H]2C(=O)O[C@H]([C@H](C)C[C@@H]2CC[C@@H](O)[C@H](OC)C2)CC(=O)[C@H](C)/C=C(\C)[C@@H](O)[C@@H](OC)C(=O)[C@H](C)C[C@H](C)/C=C/C=C/C=C/1C 149.83

Supply measured GLUCOSE of COc1ccccc1OCC(O)COC(N)=O (configuration not stated) in your reply. 150.5

* * *

# Species: Rattus norvegicus
# ASSAY_METHOD_TEXT: DrugMatrix - Regimen: Daily Repeat
# Type: toxicity, organism-based, Sprague-Dawley
# Parameters: regimen Daily Repeat, gender Male, age 6-8 weeks
# TEST_CONDITIONS: in vivo, po, 0 mg/kg, 72 h, tissue Blood, route oral GAVAGE, dose level Control, time 3 day, […]
ENDPOINT_NAME: LEUKOCYTE COUNT (x10E3/uL)
Please state the figure in x10E3/uL; there is no need to write the unit.

- COMPOUND: "CC(CCc1ccc(O)cc1)NCCc1ccc(O)c(O)c1 (stereo not given)"
  LEUKOCYTE COUNT [x10E3/uL]: 11.77
- COMPOUND: "CN(CCOc1ccc(CC2SC(=O)NC2=O)cc1)c1ccccn1 (stereo not given)"
  LEUKOCYTE COUNT [x10E3/uL]: 11.72
- COMPOUND: "NC[C@@H]1O[C@H](O[C@H]2[C@@H](O)[C@H](O[C@@H]3[C@@H](O)[C@H](N)C[C@H](N)[C@H]3O[C@H]3O[C@H](CN)[C@@H](O)[C@H](O)[C@H]3N)O[C@@H]2CO)[C@H](N)[C@@H](O)[C@@H]1O"
  LEUKOCYTE COUNT [x10E3/uL]: 10.68
- COMPOUND: "CC(=O)Nc1nnc(S(N)(=O)=O)s1 [ACETAZOLAMIDE]"
  LEUKOCYTE COUNT [x10E3/uL]: 9.73

Lab note: next compound to report on.
For the compound CC[C@H](C)C(=O)O[C@H]1C[C@H](O)C=C2C=C[C@H](C)[C@H](CC[C@@H](O)C[C@@H](O)CC(=O)O)[C@H]21 , report LEUKOCYTE COUNT. 11.72

* * *

# Organism: Rattus norvegicus
# ASSAY_METHOD_TEXT: DrugMatrix - Regimen: Daily Repeat
# Type: toxicity, organism-based, Sprague-Dawley
# Parameters: regimen Daily Repeat, gender Male, age 6-8 weeks
# TEST_CONDITIONS: in vivo, po, 0 mg/kg, 120 h, tissue Blood, route oral GAVAGE, dose level Control, time 5 day, vehicle .5 % CMC
ENDPOINT_NAME: ABSOLUTE SEGMENTED NEUTROPHIL

Worked examples, 2 molecules total:
- MOLECULE: "C[C@@H](O)[C@H]1C(=O)N2C(C(=O)O)=C(S[C@@H]3CN[C@H](C(=O)N(C)C)C3)[C@H](C)[C@H]12"
  ABSOLUTE SEGMENTED NEUTROPHIL: "1468.33 CELLS/uL"
- MOLECULE: "CC(C(=O)O)c1ccc(-c2ccccc2)c(F)c1 (centres undefined)"
  ABSOLUTE SEGMENTED NEUTROPHIL: "1468.33 CELLS/uL"

Output measured ABSOLUTE SEGMENTED NEUTROPHIL for this item: COc1ccccc1OCC(O)COC(N)=O (centres undefined) 1225 CELLS/uL

For the molecule O=c1cc(-c2ccccc2)oc2ccc3ccccc3c12 , report ABSOLUTE SEGMENTED NEUTROPHIL. 1130 cells/µL
